test system: HCI-001 (organoid from a triple-negative breast cancer xenograft); assay: CTG-3D luminescence at 96 h relative to day-0 seeding control (ratio to day 0); higher = more growth / less cytotoxicity; PDxO 3D drug screen (set 2), 96 h, CTG-3D normalised to day-0 seeding control.; settings: 625 fM; days in culture: 401
Readout Name: CTG-3D luminescence at 96 h
The response must contain the number and no unit.

Entry `C[C@@H](Nc1cc(F)cc(F)c1)c1cc(C(=O)N(C)C)cc2c(=O)cc(N3CCOCC3)oc12` has what CTG-3D luminescence at 96 h?
1.69

Entry `Nc1cc(C(F)(F)F)c(-c2cc(N3CCOCC3)nc(N3CCOCC3)n2)cn1` has what CTG-3D luminescence at 96 h?
1.76

Entry `CCOc1ccn(-c2ccc(F)cc2)c(=O)c1C(=O)Nc1ccc(Oc2ccnc(N)c2Cl)c(F)c1` has what CTG-3D luminescence at 96 h?
1.76

Entry `CO[C@H]1C[C@@H]2CC[C@@H](C)[C@@](O)(O2)C(=O)C(=O)N2CCCC[C@H]2C(=O)O[C@H]([C@H](C)C[C@@H]2CC[C@@H](OCCO)[C@H](OC)C2)CC(=O)[C@H](C)/C=C(\C)[C@@H](O)[C@@H](OC)C(=O)[C@H](C)C[C@H](C)/C=C/C=C/C=C/1C` has what CTG-3D luminescence at 96 h?
1.41

====

system: HCI-002 (organoid from a triple-negative breast cancer xenograft); assay: CTG-3D luminescence at 96 h relative to day-0 seeding control (ratio to day 0); higher = more growth / less cytotoxicity; PDxO 3D drug screen, 96 h, CTG-3D normalised to day-0 seeding control.; conditions: 0.005 µM; days in culture: 227
Please provide measured CTG-3D luminescence at 96 h for the entries that follow.

Give CTG-3D luminescence at 96 h (HCI-002) of the following compound: `CC[C@H](NC(=O)[C@H](C)NC)C(=O)N1C[C@@H](O)C[C@H]1Cc1c(-c2[nH]c3cc(F)ccc3c2C[C@@H]2C[C@H](O)CN2C(=O)[C@H](CC)NC(=O)[C@H](C)NC)[nH]c2cc(F)ccc12`
5.21

Give CTG-3D luminescence at 96 h (HCI-002) of the following compound: `CCN1CCN(Cc2ccc(Nc3ncc(F)c(-c4cc(F)c5nc(C)n(C(C)C)c5c4)n3)nc2)CC1`
4.76

Give CTG-3D luminescence at 96 h (HCI-002) of the following compound: `CS(=O)(=O)c1ccc(C(=O)Nc2ccc(Cl)c(-c3ccccn3)c2)c(Cl)c1`
3.59

Give CTG-3D luminescence at 96 h (HCI-002) of the following compound: `COc1cccc2c1C(=O)c1c(O)c3c(c(O)c1C2=O)C[C@@](O)(C(=O)CO)C[C@@H]3O[C@H]1C[C@H](N)[C@H](O)[C@H](C)O1`
4.24

Give CTG-3D luminescence at 96 h (HCI-002) of the following compound: `Nc1ccn([C@@H]2O[C@H](CO)[C@@H](O)C2(F)F)c(=O)n1`
4.57

Give CTG-3D luminescence at 96 h (HCI-002) of the following compound: `C[C@H](NC(=O)CCC(F)(F)F)C(=O)N[C@@H]1C(=O)N(CCO)c2ncccc2-c2ccccc21`
5.03

Give CTG-3D luminescence at 96 h (HCI-002) of the following compound: `CCc1c2c(nc3ccc(O)cc13)-c1cc3c(c(=O)n1C2)COC(=O)[C@]3(O)CC`
1.89

Give CTG-3D luminescence at 96 h (HCI-002) of the following compound: `Cc1cc(Nc2ncc(Cl)c(Nc3ccccc3S(=O)(=O)C(C)C)n2)c(OC(C)C)cc1C1CCNCC1`
5.45

Give CTG-3D luminescence at 96 h (HCI-002) of the following compound: `O=C(O)C1(C(=O)O)CCC1.[NH2-].[NH2-].[Pt+2]`
5.38
